- TEST_SYSTEM: human Nav1.7 (Homo sapiens, UniProt Q15858)
- Construct: expressed in transfected cells; host or cells: HEK293
- Sequence (Q15858 whole entry): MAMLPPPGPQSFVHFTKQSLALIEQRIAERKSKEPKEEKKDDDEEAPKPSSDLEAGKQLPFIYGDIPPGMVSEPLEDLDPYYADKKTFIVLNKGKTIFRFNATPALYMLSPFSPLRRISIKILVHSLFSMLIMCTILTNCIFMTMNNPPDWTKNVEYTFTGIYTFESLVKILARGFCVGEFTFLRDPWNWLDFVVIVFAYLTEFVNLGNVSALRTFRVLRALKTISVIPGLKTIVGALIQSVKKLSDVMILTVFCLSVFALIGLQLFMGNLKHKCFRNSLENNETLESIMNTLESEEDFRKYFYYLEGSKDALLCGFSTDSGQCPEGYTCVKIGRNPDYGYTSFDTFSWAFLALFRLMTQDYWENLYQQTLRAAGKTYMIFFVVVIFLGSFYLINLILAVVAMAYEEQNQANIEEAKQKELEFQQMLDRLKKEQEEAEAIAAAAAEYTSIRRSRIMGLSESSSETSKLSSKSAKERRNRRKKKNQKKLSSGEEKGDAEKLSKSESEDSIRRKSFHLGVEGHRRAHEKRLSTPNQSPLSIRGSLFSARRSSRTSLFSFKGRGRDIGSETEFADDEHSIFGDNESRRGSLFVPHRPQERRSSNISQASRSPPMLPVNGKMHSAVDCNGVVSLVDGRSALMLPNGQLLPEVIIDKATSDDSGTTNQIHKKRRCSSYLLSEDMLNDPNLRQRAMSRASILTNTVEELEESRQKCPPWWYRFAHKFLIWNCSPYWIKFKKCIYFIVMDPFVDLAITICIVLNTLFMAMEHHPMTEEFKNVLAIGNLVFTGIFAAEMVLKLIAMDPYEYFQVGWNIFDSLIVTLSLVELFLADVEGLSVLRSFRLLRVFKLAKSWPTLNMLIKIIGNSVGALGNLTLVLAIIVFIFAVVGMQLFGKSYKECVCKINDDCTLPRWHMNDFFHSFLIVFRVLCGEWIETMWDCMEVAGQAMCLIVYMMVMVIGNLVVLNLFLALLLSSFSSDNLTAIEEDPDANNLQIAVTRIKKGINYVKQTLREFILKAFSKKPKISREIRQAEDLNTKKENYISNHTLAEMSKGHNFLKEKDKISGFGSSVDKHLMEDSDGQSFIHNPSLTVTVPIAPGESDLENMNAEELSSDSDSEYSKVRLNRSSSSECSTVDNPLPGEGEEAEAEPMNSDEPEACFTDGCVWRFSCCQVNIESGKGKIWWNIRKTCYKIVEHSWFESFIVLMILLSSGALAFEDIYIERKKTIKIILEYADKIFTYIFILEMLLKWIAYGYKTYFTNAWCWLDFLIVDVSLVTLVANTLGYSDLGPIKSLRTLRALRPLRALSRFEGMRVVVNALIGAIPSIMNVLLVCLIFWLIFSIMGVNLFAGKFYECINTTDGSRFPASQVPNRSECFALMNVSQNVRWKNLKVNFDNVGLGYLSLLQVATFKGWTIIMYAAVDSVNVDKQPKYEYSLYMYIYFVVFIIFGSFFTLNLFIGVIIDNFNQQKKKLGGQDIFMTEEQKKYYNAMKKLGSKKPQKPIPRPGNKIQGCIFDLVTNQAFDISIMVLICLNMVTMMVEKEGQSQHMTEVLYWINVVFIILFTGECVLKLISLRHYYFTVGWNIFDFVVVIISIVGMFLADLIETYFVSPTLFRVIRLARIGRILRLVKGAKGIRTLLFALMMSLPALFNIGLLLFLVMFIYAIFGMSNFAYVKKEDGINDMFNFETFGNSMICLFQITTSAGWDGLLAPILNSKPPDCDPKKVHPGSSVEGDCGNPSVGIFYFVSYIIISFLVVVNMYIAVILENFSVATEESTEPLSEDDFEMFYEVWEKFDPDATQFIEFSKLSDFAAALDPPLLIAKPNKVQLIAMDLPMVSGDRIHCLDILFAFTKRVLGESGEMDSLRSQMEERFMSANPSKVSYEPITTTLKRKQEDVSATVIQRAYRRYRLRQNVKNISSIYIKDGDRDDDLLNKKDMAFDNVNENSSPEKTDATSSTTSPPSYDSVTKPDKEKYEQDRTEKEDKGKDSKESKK
- TEST_DESCRIPTION: Nav 1.7 IWB In Vitro Assay (IonWorks Barracuda)
- Format: cell-based
- CONDITION: HEK293 cells stably transfected with human Nav 1.7; IonWorks Barracuda population patch-clamp; cells clamped to −20 mV for 4 minutes with compound; 26th pulse; read-out: hNav1.7 IWB IC50
Answer each item with its documented pIC50.
Answers are plain numbers, as −log10 of the molar value.

compound=COc1cc(-c2ccc(Cl)cc2)c(F)cc1-n1c2c(ccc1=O)CN(S(=O)(=O)Nc1cccnn1)CC2 test_system="human Nav1.7 (Homo sapiens, UniProt Q15858)" observed=7.62
compound="COc1cc(-c2cc(F)cc(F)c2)c(F)cc1-n1c2c(ccc1=O)CN(S(=O)(=O)Nc1cccc(F)n1)CC2 (racemic) [Example 14-(Rac)]" test_system="human Nav1.7 (Homo sapiens, UniProt Q15858)" observed=7.59
compound="COc1cc(-c2cccc(OC(F)F)c2)c(F)cc1-n1c2c(ccc1=O)CN(S(=O)(=O)Nc1ccon1)CC2 (single isomer, unassigned) [Example 19-P]" test_system="human Nav1.7 (Homo sapiens, UniProt Q15858)" observed=8.13
compound=COc1cc(-c2cc(F)cc(Cl)c2)c(Cl)cc1-n1c2c(ccc1=O)CN(S(=O)(=O)Nc1ccon1)CC2 test_system="human Nav1.7 (Homo sapiens, UniProt Q15858)" observed=9.15

// switching to the query compound
Exercise: Give the measured pIC50 of COc1cc(-c2cc(Cl)ccc2C)c(F)cc1-n1c2c(ccc1=O)CN(S(=O)(=O)Nc1ccon1)CC2 (single isomer, unassigned) [Example 9-P] .
Key: 8.51

###

- TEST_SYSTEM: human Nav1.7 (Homo sapiens)
- Construct: expressed in transfected cells; host or cells: HEK293
- TEST_DESCRIPTION: Nav 1.7 IWB In Vitro Assay (IonWorks Barracuda)
- Type: cell-based
- CONDITION: HEK293 cells stably transfected with human Nav 1.7; IonWorks Barracuda population patch-clamp; cells clamped to −20 mV for 4 minutes with compound; 26th pulse; read-out: hNav1.7 IWB IC50
pIC50: −log10 of the molar value.
Label t when pIC50 is at or above 7; otherwise label f.

compound="COc1cc(-c2cc(C(F)(F)F)cnc2OC)c(F)cc1-n1c2c(ccc1=O)CN(S(=O)(=O)Nc1ccon1)CC2 (racemic)" class_label=t
compound="COc1cc(-c2cc(F)cc(Cl)c2)ccc1-n1c2c(ccc1=O)CN(S(=O)(=O)Nc1ccon1)CC2 (single isomer, unassigned) [Example 7-M]" class_label=f

Exercise: Exam item: decide whether the reported pIC50 for COc1cc(-c2cc(OC)c(-n3c4c(ccc3=O)CN(S(=O)(=O)Nc3cccnn3)CC4)cc2F)cc(C(F)(F)F)c1 is at least 7.
Key: t

Exercise: Can you handle COc1cc(-c2cccc(C(F)F)c2)c(F)cc1-n1c2c(ccc1=O)CN(S(=O)(=O)Nc1cccnn1)CC2 next?
Key: t

Exercise: Can you handle COc1ccc(Cl)cc1-c1cc(OC)c(-n2c3c(ccc2=O)CN(S(=O)(=O)Nc2cccnn2)CC3)cc1F next?
Key: t

Exercise: Can you handle COc1cc(-c2ccc(Cl)c(C)c2)c(F)cc1-n1c2c(ccc1=O)CN(S(=O)(=O)Nc1ccon1)CC2 (single isomer, unassigned) [Example 24-P] next?
Key: t

Exercise: Can you handle COc1cc(-c2cc(F)cc(Cl)c2)c(F)cc1-n1c2c(ccc1=O)CN(S(=O)(=O)Nc1ncccn1)CC2 (single isomer, unassigned) [Example 31-M] next?
Key: f

###

- TEST_SYSTEM: human Nav1.7 (Homo sapiens, UniProt Q15858)
- Construct: expressed in transfected cells; host or cells: HEK293
- TEST_DESCRIPTION: Nav 1.7 IWQ In Vitro Assay (IonWorks Quattro)
- Format: cell-based
- CONDITION: HEK293 cells stably transfected with human Nav 1.7; IonWorks Quattro population patch-clamp; 26th pulse to −20 mV, 5 Hz; cells unclamped 5 to 8 minutes with compound; read-out: hNav1.7 IWQ IC50
PROPERTY_LABEL: IC50 (nM)
Answers are plain numbers, in nM.

Some compounds with recorded IC50:
compound="COc1cc(-c2cc(F)cc(F)c2)c(F)cc1-n1c2c(ccc1=O)CN(S(=O)(=O)Nc1cccc(F)n1)CC2 (single isomer, unassigned) [Example 14-P]" unit_label=nM observed=26
compound=COc1cc(-c2cc(F)cc(C(F)F)c2)c(F)cc1-n1c2c(ccc1=O)CN(S(=O)(=O)Nc1cccnn1)CC2 unit_label=nM observed=8.3
compound="COc1cc(-c2cc(F)cc(Cl)c2)c(F)cc1-n1c2c(ccc1=O)CN(S(=O)(=O)Nc1ncns1)CC2 (single isomer, unassigned) [Example 5-P]" unit_label=nM observed=1.6
compound=COc1cc(-c2cc(F)c(F)c(C(F)F)c2)c(F)cc1-n1c2c(ccc1=O)CN(S(=O)(=O)Nc1cccnn1)CC2 unit_label=nM observed=7.1
compound=COc1cc(-c2cc(F)cc(F)c2)c(F)cc1-n1c2c(ccc1=O)CN(S(=O)(=O)Nc1ccon1)[C@H](C)C2 unit_label=nM observed=40.5
compound="COc1cc(-c2cc(F)cc(Cl)c2)c(F)cc1-n1c2c(ccc1=O)CN(S(=O)(=O)Nc1cccnn1)CC2 (single isomer, unassigned) [Example 38-P]" unit_label=nM observed=6.7
compound="COc1cc(-c2ccc(C)c(F)c2)c(F)cc1-n1c2c(ccc1=O)CN(S(=O)(=O)Nc1ccon1)CC2 (single isomer, unassigned) [Example 21-P]" unit_label=nM observed=7.7
compound=COc1cc(-c2cccc(OCC(F)(F)F)c2)c(F)cc1-n1c2c(ccc1=O)CN(S(=O)(=O)Nc1cccnn1)CC2 unit_label=nM observed=2.4

Exercise: Give the measured IC50 of COc1cc(-c2cc(F)cc(F)c2)c(F)cc1-n1c2c(ccc1=O)[C@H](C)N(S(=O)(=O)Nc1ccon1)CC2 (single isomer, unassigned) .
Key: 224

###

- TEST_SYSTEM: human Nav1.7 (Homo sapiens)
- Construct: expressed in transfected cells; host or cells: HEK293
- TEST_DESCRIPTION: Nav 1.7 In Vitro PatchXpress (PX) Assay
- Assay type: cell-based
- CONDITION: HEK 293 cells stably transfected with human Nav1.7; PatchXpress whole cell voltage clamp; partially inactivated state (holding potential yielding 20 to 50% inactivation); read-out: hNav1.7 PX IC50
PROPERTY_LABEL: IC50 (nM)
Numbers only, in nM.

Some compounds with recorded IC50:
compound="COc1cc(-c2cc(F)cc(F)c2)c(F)cc1-n1c2c(ccc1=O)CN(S(=O)(=O)Nc1ncc(F)cn1)CC2 (single isomer, unassigned) [Example 10-M]" observed=612
compound="COc1cc(-c2cc(OC)c(-n3c4c(ccc3=O)CN(S(=O)(=O)Nc3ccon3)CC4)cc2F)ccc1C (racemic) [Example 58-(Rac)]" observed=78
compound="COc1cc(-c2ccc(F)c(F)c2)c(F)cc1-n1c2c(ccc1=O)CN(S(=O)(=O)Nc1cccnn1)CC2 (single isomer, unassigned) [Example 32-M]" observed=20600

List IC50 for every entry below, keeping the order given.
1. COc1cc(-c2cc(C)ccc2Cl)c(F)cc1-n1c2c(ccc1=O)CN(S(=O)(=O)Nc1cccnn1)CC2
2. COc1cc(-c2cc(F)cc(Cl)c2)c(F)cc1-n1c2c(ccc1=O)CN(S(=O)(=O)Nc1ccc(F)cn1)CC2 (racemic) [Example 12-(Rac)]
3. COc1cc(-c2cc(F)cc(F)c2)c(F)cc1-n1c2c(ccc1=O)CN(S(=O)(=O)Nc1ncc(F)cn1)CC2 (single isomer, unassigned) [Example 10-P]
4. COc1cc(-c2ccc(F)c(C)c2)c(C)cc1-n1c2c(ccc1=O)CN(S(=O)(=O)Nc1cccnn1)CC2 (single isomer, unassigned) [Example 93-M]
5. COc1cc(OC(F)(F)F)cc(-c2cc(OC)c(-n3c4c(ccc3=O)CN(S(=O)(=O)Nc3cccnn3)CC4)cc2F)c1

Key:
1. 156
2. 106
3. 644
4. 1800
5. 38.8

###

- TEST_SYSTEM: human Nav1.7 (Homo sapiens)
- Construct: expressed in transfected cells; host or cells: HEK293
- TEST_DESCRIPTION: Nav 1.7 IWB In Vitro Assay (IonWorks Barracuda)
- Assay type: cell-based
- CONDITION: HEK293 cells stably transfected with human Nav 1.7; IonWorks Barracuda population patch-clamp; cells clamped to −20 mV for 4 minutes with compound; 26th pulse; read-out: hNav1.7 IWB IC50
- Procedure: Nav 1.7 IWB In Vitro Assay HEK293 cells stably transfected with human Nav 1.7 were recorded in population patch-clamp mode with the IonWorks© Barracuda (IWB) automated electrophysiology system (Molecular Devices, LLC, Sunnyvale, Calif.). From a holding potential of −110 mV, sodium currents were elicited by a train of 26 depolarizations of 150 ms duration to −20 mV at a frequency of 5 Hz. […]
Note to self: use Criterion met only for IC50 readings below 50 nM; a reading exactly at 50 nM still gets Criterion not met.

Solved entries:
compound="COc1cc(Br)c(F)cc1-n1c2c(ccc1=O)CN(S(=O)(=O)Nc1ccncn1)CC2 (single isomer, unassigned) [Preparation 8f-M]" test_system="human Nav1.7 (Homo sapiens)" class_label="Criterion not met"
compound=COc1cc(-c2ccc(C(F)F)c(F)c2)c(F)cc1-n1c2c(ccc1=O)CN(S(=O)(=O)Nc1cccnn1)CC2 test_system="human Nav1.7 (Homo sapiens)" class_label="Criterion met"
compound="COc1cc(-c2ccc(F)c(F)c2)c(F)cc1-n1c2c(ccc1=O)CN(S(=O)(=O)Nc1ncccn1)CC2 (racemic) [Example 28-(Rac)]" test_system="human Nav1.7 (Homo sapiens)" class_label="Criterion not met"
compound="COc1cc(-c2cc(F)cc(Cl)c2)c(F)cc1-n1c2c(ccc1=O)CN(S(=O)(=O)Nc1ccnc(C)n1)CC2 (racemic) [6-(Rac)]" test_system="human Nav1.7 (Homo sapiens)" class_label="Criterion not met"
compound="COc1cc(-c2cc(F)cc(Cl)c2)c(F)cc1-n1c2c(ccc1=O)CN(S(=O)(=O)Nc1ccnc(C)n1)CC2 (single isomer, unassigned) [Example 6-P]" test_system="human Nav1.7 (Homo sapiens)" class_label="Criterion not met"

Exercise: Please determine if COc1nc(-c2cc(F)cc(Cl)c2)c(F)cc1-n1c2c(ccc1=O)CN(S(=O)(=O)Nc1ccon1)CC2 (racemic) is below 50 nM in terms of IC50.
Key: Criterion not met

Exercise: Can you handle COc1cc(-c2cc(F)cc(F)c2)c(F)cc1-n1c2c(ccc1=O)CN(S(=O)(=O)Nc1ccon1)[C@H](C)C2 [Example 3-D-P] next?
Key: Criterion met

Exercise: Can you handle COc1cc(-c2cc(F)cc(F)c2)c(F)cc1-n1c2c(ccc1=O)[C@@H](C)N(S(=O)(=O)Nc1ccon1)CC2 [Example 3-A-P] next?
Key: Criterion not met

Exercise: Can you handle COc1ccc(-c2cc(OC)c(-n3c4c(ccc3=O)CN(S(=O)(=O)Nc3cccnn3)CC4)cc2F)cc1Cl next?
Key: Criterion met

Exercise: Can you handle COc1cc(-c2cc(F)cc(Cl)c2)c(F)cc1-n1c2c(ccc1=O)CN(S(=O)(=O)Nc1ncccn1)CC2 (racemic) [Example 31] next?
Key: Criterion met

Exercise: Can you handle COc1cc(-c2cccc(C(F)(F)F)c2)c(Cl)cc1-n1c2c(ccc1=O)CN(S(=O)(=O)Nc1ccon1)CC2 next?
Key: Criterion met

Exercise: Can you handle COc1cc(-c2cc(F)cc(Cl)c2)c(F)cc1-n1c2c(ccc1=O)CN(S(=O)(=O)Nc1ccc(F)cn1)CC2 (single isomer, unassigned) [Example 12-P] next?
Key: Criterion not met

Exercise: Can you handle COc1cc(-c2cc(F)cc(F)c2)c(F)cc1-n1c2c(ccc1=O)CN(S(=O)(=O)Nc1cccc(F)n1)CC2 (single isomer, unassigned) [Example 14-M] next?
Key: Criterion not met
